Where do the numbers come from? From patent US8822468B2.

target or test system: cMET receptor tyrosine kinase (GST-cMET (969-1390)) (Homo sapiens, UniProt P08581)
Sequence (P08581 969-1390): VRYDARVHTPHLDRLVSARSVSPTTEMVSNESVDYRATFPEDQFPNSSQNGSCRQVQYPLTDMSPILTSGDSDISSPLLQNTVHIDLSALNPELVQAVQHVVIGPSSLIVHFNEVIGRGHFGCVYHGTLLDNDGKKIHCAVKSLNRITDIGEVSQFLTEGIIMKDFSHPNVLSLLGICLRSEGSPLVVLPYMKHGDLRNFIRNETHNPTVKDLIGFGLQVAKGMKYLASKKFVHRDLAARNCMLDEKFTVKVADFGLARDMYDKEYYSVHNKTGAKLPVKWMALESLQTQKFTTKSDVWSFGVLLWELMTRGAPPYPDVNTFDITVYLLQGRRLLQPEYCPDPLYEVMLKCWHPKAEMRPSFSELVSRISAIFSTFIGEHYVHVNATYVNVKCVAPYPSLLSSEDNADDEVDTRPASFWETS
measurement protocol: EPK cMET profiling assay (LanthaScreen TR-FRET antibody based kinase phosphorylation assay)
assay conditions: purified recombinant GST-cMET (969-1390), 2 μM ATP, 50 nM Fluorescein-PolyEAY, 60 minutes at room temperature; read-out: c-Met IC50
pIC50: −log10 of the molar value.
Listing of recorded pIC50 by entry.

{"columns": ["molecule", "target or test system", "comparison sign", "pIC50"],
 "data": [
  ["Fc1cc2ncccc2c(F)c1Cc1cnc2ccc(-c3cn[nH]c3)nn12", "cMET receptor tyrosine kinase (GST-cMET (969-1390)) (Homo sapiens, UniProt P08581)", "=", 8.00],
  ["N#Cc1ccc2ncc(Cc3ccc4ncccc4c3)n2n1", "cMET receptor tyrosine kinase (GST-cMET (969-1390)) (Homo sapiens, UniProt P08581)", "=", 7.28],
  ["c1cnc2ccc(Cc3cnc4ccc(-c5ccc6c(c5)OCO6)nn34)cc2c1", "cMET receptor tyrosine kinase (GST-cMET (969-1390)) (Homo sapiens, UniProt P08581)", "=", 7.02],
  ["c1ccc(CN2CCC(Nc3ccc4ncc(Cc5ccc6ncccc6c5)n4n3)C2)cc1 (stereo not drawn)", "cMET receptor tyrosine kinase (GST-cMET (969-1390)) (Homo sapiens, UniProt P08581)", "=", 6.20],
  ["CC(c1cc2cccnc2cc1F)c1cnc2ccc(-c3cnn(CCO)c3)nn12 (racemic)", "cMET receptor tyrosine kinase (GST-cMET (969-1390)) (Homo sapiens, UniProt P08581)", "=", 7.44],
  ["c1cnc2ccc(Cc3cnc4ccc(N5CCC6(CC5)OCCO6)nn34)cc2c1", "cMET receptor tyrosine kinase (GST-cMET (969-1390)) (Homo sapiens, UniProt P08581)", "=", 7.38],
  ["CCn1nccc1Nc1ccc2ncc(Cc3ccc4ncccc4c3)n2n1", "cMET receptor tyrosine kinase (GST-cMET (969-1390)) (Homo sapiens, UniProt P08581)", "=", 7.30],
  ["C[C@@H](c1c(F)cc2ncccc2c1F)c1cnc2ccc(-c3cnn(C)c3)nn12", "cMET receptor tyrosine kinase (GST-cMET (969-1390)) (Homo sapiens, UniProt P08581)", ">", 8.52],
  ["Fc1ccc(-c2ccc3ncc(Cc4ccc5ncccc5c4)n3n2)cc1", "cMET receptor tyrosine kinase (GST-cMET (969-1390)) (Homo sapiens, UniProt P08581)", "=", 7.32]
]}
